target or test system: Dihydroorotate dehydrogenase (quinone), mitochondrial (Plasmodium falciparum (isolate 3D7))
protocol notes: inhibition of P. falciparum DHODH – biochemical, C-terminal His tag, absorbance 600 nm, primary screen (AID 1175);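 note: recombinant parasite enzyme with a five histidine tag at its C terminus; test concentration not given here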
test parameters: PfDHODH enzyme, DCIP absorbance 600 nm; higher = more signal, called active from +8 up or from −8 down
Use -1 as the dividing line for composite z-score, with the line itself on the Y side and lower values as N.

These recorded examples may help you get a feel for the data.
COCCOC(=O)N1C(=O)[C@@]2(c3cc(C#Cc4ccc(OC)cc4)ccc31)[C@H](c1ccc(O)cc1)N1[C@H](c3ccccc3)[C@H](c3ccccc3)OC(=O)[C@H]1[C@@H]2C(=O)N1CCN(c2ncccn2)CC1	Y
COc1ccc([Si](C)(C)[C@@H]2[C@@H](CCO)O[C@]3(C(=O)N(Cc4cccc(N5CCCCC5=O)c4)c4ccccc43)[C@H]2C)cc1	N
COc1ccc(C(=O)Nc2cccc(CN3C(=O)[C@@]4(O[C@@H](CCn5cc([C@H](O)c6ccccc6)nn5)[C@H]([Si](C)(C)c5ccc(OC)cc5)[C@H]4C)c4ccccc43)c2)cc1	Y
NC(=O)NCC#Cc1ccc2c(c1)[C@]1(C(=O)N2)[C@H](c2ccc(O)cc2)N2[C@H](c3ccccc3)[C@H](c3ccccc3)OC(=O)[C@H]2[C@@H]1C(=O)N1CCN(c2ncccn2)CC1	Y
CCCCN1CC=CC23O[C@@H]4/C=C\CCCOC(=O)C4[C@H]2C(=O)N(C(C)CO)[C@@H]3C1=O (stereo partly drawn)	Y

-- ask Decide: is the reported value of composite z-score for O=C1OCC=C[C@H]2OC34C=CCN(c5ccc6ccccc6c5)C(=O)[C@H]3N(CCO)C(=O)[C@@H]4[C@@H]12 (stereo partly drawn) equal to or greater than -1?
-- reply N

-- ask Decide: is the reported value of composite z-score for `CCCC[C@@H]1C[C@H]1[C@@H](NC(=O)c1ccccc1)c1ccccc1` equal to or greater than -1?
-- reply Y

-- ask Decide: is the reported value of composite z-score for `C=CCN1C(=O)[C@@]2(O[C@@H](CCO)[C@H]([Si](C)(C)c3ccc(OC)cc3)[C@H]2C)c2cc(N3C(=O)COc4ccccc43)ccc21` equal to or greater than -1?
-- reply Y

-- ask Decide: is the reported value of composite z-score for `O=C1O[C@@H](c2ccccc2)[C@@H](c2ccccc2)N2[C@@H](c3ccc(O)cc3)[C@]3(C(=O)Nc4ccc(C#CCCO)cc43)[C@@H](C(=O)O)[C@H]12` equal to or greater than -1?
-- reply N

-- ask Decide: is the reported value of composite z-score for COc1cc2c(cc1O)C(c1ccc(CN3CCCC3)cc1)N(Cc1sc3ccccc3c1Cl)CC2 (stereo not drawn) equal to or greater than -1?
-- reply N

-- ask Decide: is the reported value of composite z-score for `CCOC(=O)C[C@H]1[C@H](OC(=O)c2cc3ccccc3oc2=O)[C@@H](NC(=O)c2ccc3ccccc3c2)c2cc(OCCCO)ccc2N1C(=O)c1ccccc1` equal to or greater than -1?
-- reply N

-- ask Decide: is the reported value of composite z-score for Cn1c2c(c3ccccc31)C(=O)C1NC2C=CC1(C)C(=O)OCc1ccccc1 (stereo not drawn) equal to or greater than -1?
-- reply Y

====

For each entry below, report its z-score value.
protocol notes: JC-1 mitochondrial signal, unstimulated myeloma cells – cell-based, JC-1 fluorescence, RPMI8226, 24 h, 100 nL compound, profiling panel (AID 1169); note: test concentration not given here
test parameters: JC-1 mitochondrial potential fluorescence, higher = more signal
Give bare numbers.

C=C(COC)C(=O)CC[C@H](OC(=O)c1cccnc1)c1ccccc1OCCO	-0.706

Below is a list of molecules. For each, state its recorded z-score.
1. COc1ccc([Si](C)(C)[C@H]2[C@H](CC(=O)N3CCC[C@H]3CO)O[C@@]3(C(=O)N(c4ccccc4)c4ccccc43)[C@@H]2C)cc1
2. COc1ccc(CCNC(=O)[C@@]2(C)c3ccccc3C(=O)N(Cc3ccccc3)[C@H]2c2ccc(CO)cc2)cc1
3. O=C1O[C@@H](c2ccccc2)[C@@H](c2ccccc2)N2[C@@H](c3ccc(O)cc3)[C@]3(C(=O)Nc4ccccc43)[C@@H](C(=O)NC[C@H](O)c3ccccc3)[C@H]12
4. Cc1ccc(F)cc1S(=O)(=O)N[C@@H]1CCN(Cc2ccc(C(F)(F)F)cc2)C1
5. CC1CC/C=C\[C@H]2OC34C=CCN(CCN5CCOCC5)C(=O)[C@H]3N(CCCCCO)C(=O)[C@@H]4C2C(=O)O1 (some centres not stated)

-- reply
1: 0.421; 2: -0.0556; 3: -0.774; 4: -0.615; 5: -0.0345

Below is a list of molecules. For each, state its recorded z-score.
1. CCOC(=O)C[C@H]1[C@H](OC(=O)c2ccccc2-c2ccccc2)[C@@H](NC(=O)c2ccc(-c3ccccc3)cc2)c2cc(OCCCO)ccc2N1C(=O)c1ccccc1
2. O=C1O[C@H](c2ccccc2)[C@H](c2ccccc2)N2[C@H]1[C@@H](C(=O)N1CCCCCCC1)[C@]1(C(=O)Nc3ccc(C#CC4=CCCCC4)cc31)[C@H]2c1ccc(O)cc1
3. O=C1C2C=CC(C(O)c3cccc4ccccc34)N(n3cnnc3)C2C(=O)N1Cc1ccccc1 (configuration not stated)
4. C=C(C(=O)CC[C@@H](OC(=O)c1cccnc1)c1ccc(CO)o1)C(C)C
5. CCCCN1CC=CC23O[C@@H]4C=CCCOC(=O)C4[C@H]2C(=O)N(CCCO)[C@@H]3C1=O (some centres not stated)
6. [N-]=[N+]=NCc1ccccc1C[C@@]1(C(=O)NCc2ccccc2)N=C(c2ccc(OCCCO)cc2)O[C@@H]1c1ccccc1CN=[N+]=[N-]
7. CC1(C)C(=O)C(c2ccccc2)=C2CN3C(=O)N(CCc4ccccc4)C(=O)C3(Cc3ccccc3)C=C21 (configuration not stated)

-- reply
1. -0.312
2. -0.179
3. -0.0245
4. 0.283
5. -0.781
6. -0.66
7. -0.871

Provenance of the data: PubChem BioAssay
